Attribute: shrunken log2 fold change
Test system: Escherichia coli TOP10
Assay: shrunken log2 fold change of peptide-encoding DNA abundance (4.5 h post-induction vs induction); higher = less antimicrobial activity (less host growth inhibition)
Conditions: time post-induction: 4.5 h; library: site-saturation at positions 5, 18, 19, 20
Kindly provide the number alone.

INPUT: Please provide the recorded shrunken log2 fold change for `RRIRGRPPRLPRPRPRPWGMPRP` , tested on Escherichia coli TOP10.
OUTPUT: 0.0572

INPUT: Another sequence: `RRIRDRPPRLPRPRPRPMQFPRP`
OUTPUT: -0.0264

Continuing:
INPUT: Requested read-out shrunken log2 fold change, target or system Escherichia coli TOP10, entry `RRIRCRPPRLPRPRPRPFITPRP`;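 note: peptides expressed intracellularly from a pBAD plasmid library in pooled LB shake-flask culture, induced with 0.3% L-arabinose, DNA abundance read by NGS, three biological replicates, DESeq2 with apeglm shrinkage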
OUTPUT: -0.639

INPUT: Can you handle `RRIRHRPPRLPRPRPRPHGVPRP` next?
OUTPUT: 0.00355

INPUT: Then `RRIRVRPPRLPRPRPRPMLVPRP` ?
OUTPUT: 0.0916
